Test system: U2OS
assayText: Multiplex assay against U2OS
Format: toxicity, cell-based
settings: human, 24 h, 1 µM, compound concentration 1 uM, replicate 1
# if value of Population Tubulin-Different-Phenotype (%) reaches 3%, tag condition met; if it stays below, tag condition not met

# compound, testTarget, answerLabel
data = [
    ("C[C@H](N)COC(=O)[C@@H](CCCCN)NC(=O)Cc1c(-c2ccc3ccccc3c2)[nH]c2c1ccc1ccccc12", "U2OS", "condition not met"),
    ("Cc1c(CC(=O)O)c2cccnc2n1Cc1ccc(S(C)(=O)=O)cc1C(F)(F)F", "U2OS", "condition not met"),
    ("Br.CS(=O)(=O)Nc1c(O)ccc2c1CCCC2C1=NCCN1 (centres undefined)", "U2OS", "condition not met"),
    ("CCCCCC(O)/C=C/[C@H]1C(=O)CC(O)C1C/C=C\\CCCC(=O)O (some centres undefined)", "U2OS", "condition not met"),
    ("Cl.NCCc1ccc(O)c(O)c1 [DOPAMINE HYDROCHLORIDE]", "U2OS", "condition met"),
    ("CCc1cc2cc(NS(=O)(=O)c3ccc(C#N)cc3)ccc2n(CC)c1=O", "U2OS", "condition met"),
    ("O=C(NCCN1CCC(n2c(=O)[nH]c3cc(Cl)ccc32)CC1)c1ccc(F)cc1 [HALOPEMIDE]", "U2OS", "condition not met"),
    ("Cc1cnc(-c2cc(N3CCN(C(=O)CCS(C)(=O)=O)CC3)ncc2Cl)c(C)c1", "U2OS", "condition not met"),
    ("Cc1onc(-c2ccccc2Cl)c1C(=O)N(C)c1ccc(Cl)cc1", "U2OS", "condition not met"),
    ("CC(C)(C)c1cc(NC(=O)Nc2ccc(-c3cn4c(n3)sc3cc(OCCN5CCOCC5)ccc34)cc2)no1", "U2OS", "condition met"),
    ("CN(C)C(=O)Cn1cc(-c2ccc(-c3cncc4ccccc34)cc2)cn1", "U2OS", "condition met"),
    ("CCCCC(=O)N(Cc1ccc(-c2ccccc2-c2nnn[nH]2)cc1)[C@H](C(=O)O)C(C)C", "U2OS", "condition not met"),
    ("CC(/C=C1\\SC(=S)N(CCCC(=O)Nc2ccc(C(=O)O)c(O)c2)C1=O)=C\\c1ccccc1", "U2OS", "condition not met"),
]

Origin of the recorded values: ChEMBL document CHEMBL5058577
